- Substrate: BHET
- run conditions: 120 h
reported endpoint: plate clearing

unnamed (protein) MKNTAFRKVSVVAVTFLLSVTAFAGGGGGGGGDNSGALPLPDTCNSNCGYELGPNPSLSFVQANRGPQPTTTTNVSSSVDGFGGGTIYYPTNISQEMAAISIAPGFTNTQSAVAWWGPVLASHGFVVITIDTNGRFDQPESRSRQLDAALNHLISESDRSSSPISGLVDRNRLATMGFSMGGGGSLRSASRNRLSAAVPLAPWSVGGNNFNQIGVPTMIMACENDGTAGINQHARPFYNAIPGSTDKVYLEINDGPHNCANGNNINNATLSTYGVSWMKRFLDKDRRFNQFLCGPNHEANSRISQFRDTCLF
not clears the plate
unnamed (protein) MAKFTGAAQFLKASMAIGAIVLSAAASAQTNPYQRGPAPTDSSLAADRGPLAYSSFTVSRPSGYRAGTVYYPTNAGGTVGAIAVVPGFTAYQSDINWWGPRLASWGFVVITIDTNSTLDQPSSRSRQQLAALDQVATLSRTSGSPIYNKVDTSRMGVMGWSMGGGGSLISTQNRPSLKASIPFAPWNGTSSFSSVTTPTFIIACQSDLIAPVASHANDFYNSLSRPPKMFLEIRGGSHYCANSSNGNKDVLGAKGVAWMKRY
not clears the plate
